For each of the variants below, state its 8OG:A repair function score.
B1: library; numbered along this chain (parent)
chain: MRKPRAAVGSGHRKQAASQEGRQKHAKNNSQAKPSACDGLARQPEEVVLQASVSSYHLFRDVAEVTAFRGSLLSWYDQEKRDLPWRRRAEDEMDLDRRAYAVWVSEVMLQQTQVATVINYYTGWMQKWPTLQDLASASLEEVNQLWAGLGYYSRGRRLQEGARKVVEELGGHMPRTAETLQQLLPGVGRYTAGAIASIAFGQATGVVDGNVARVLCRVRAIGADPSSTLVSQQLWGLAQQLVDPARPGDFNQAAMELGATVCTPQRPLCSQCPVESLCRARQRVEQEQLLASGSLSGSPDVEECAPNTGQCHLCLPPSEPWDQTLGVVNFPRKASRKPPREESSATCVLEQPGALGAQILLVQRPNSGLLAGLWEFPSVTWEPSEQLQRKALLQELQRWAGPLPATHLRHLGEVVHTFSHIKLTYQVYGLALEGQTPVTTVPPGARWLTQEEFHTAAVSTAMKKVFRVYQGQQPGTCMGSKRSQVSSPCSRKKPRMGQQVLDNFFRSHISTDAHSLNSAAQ

# Variants of: B1
# Assay Method Text: 8OG:A repair function score (normalized; synonymous = 0, nonsense = -1) (normalized log-likelihood score); higher = more repair activity (WT-like);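 note: cells sorted at 72 h after reporter transfection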
# Measurement Context: with 8OG:A DNA repair reporter (GFP) in HEK-293 MUTYH KO cells

Answer with the recorded 8OG:A repair function score of L313H only.
-0.299

Answer with reported 8OG:A repair function score of R156F
-0.3

Please indicate 8OG:A repair function score recorded for L184F
-0.304

Data origin: the supplement of paper PMC11908140
